assay: clinical; conditions: human, in vivo, 300 mg/m2
Counter-ions that a name gives are not always drawn.
readoutType: AUC(0-inf) (ng·h/mL)

* CCc1c2c(nc3ccc(OC(=O)N4CCC(N5CCCCC5)CC4)cc13)-c1cc3c(c(=O)n1C2)COC(=O)[C@]3(O)CC [irinotecan HCl] | 24700

----------
tested on: Hs766t; test: CellTiter-Glo cell viability; format: cell-based; details: Hs766T, 24 h exposure + 72 h recovery, read-out: IC50(nM) mean
readoutType: IC50 (nM)

- CCc1c2c(nc3ccc(O)cc13)-c1cc3c(c(=O)n1C2)COC(=O)[C@]3(O)CC: 63.1

----------
tested on: BxPC3; assay: CellTiter-Glo cell viability; format: cell-based; conditions: Homo sapiens, BXPC-3; BxPC3, 24 h exposure + 72 h recovery; read-out: IC50(nM) mean
readoutType: IC50 (nM)

- CCc1c2c(nc3ccc(O)cc13)-c1cc3c(c(=O)n1C2)COC(=O)[C@]3(O)CC: 0.017

----------
test system: SU8686; assay: CellTiter-Glo cell viability; type: cell-based; conditions: Homo sapiens, SU.86.86; SU8686, 24 h exposure + 72 h recovery; read-out: IC50(nM) mean
readoutType: IC50 (nM)

- CCc1c2c(nc3ccc(O)cc13)-c1cc3c(c(=O)n1C2)COC(=O)[C@]3(O)CC: 0.692

----------
assay: NAPOLI-1 observed 5-FU concentration; settings: human, in vivo, intravenous; read-out: 5-FU estimated half-life after the end of infusion
readoutType: half-life

- O=c1[nH]cc(F)c(=O)[nH]1: 8 to 14 min

----------
tested on: Hs766t; test: CellTiter-Glo cell viability; assay type: cell-based; settings: 24 h exposure + 72 h recovery, read-out: IC50(nM) mean
readoutType: IC50 (nM)

- CCc1c2c(nc3ccc(O)cc13)-c1cc3c(c(=O)n1C2)COC(=O)[C@]3(O)CC: 63.1
